FYI, the data here is from patent US10065990B2.

Tested on: Bel-7402 (human hepatoma cells)
Experiment: MTT cancer cell growth inhibition
Assay type: cell-based
Conditions: Homo sapiens, Bel-7402, 72 h, MTT, 72 hours incubation, Bel-7402 cells; read-out: GI50 Bel-7402
Endpoint label: GI50 (nM)

Solved cases below.
>>> measurement("C/C=C1\\NC(=O)c2nc(ccc2C)CNC(=O)C[C@@H](/C=C/CCSC(C)=O)OC(=O)[C@H](Cc2ccccc2)NC1=O")
34
>>> measurement("CC(C)=C1NC(=O)c2cccc(n2)CNC(=O)C[C@@H](/C=C/CCS)OC(=O)[C@H](C(C)C)NC1=O")
39

I. C/C=C1\NC(=O)c2nccc(n2)CNC(=O)C[C@@H](/C=C/CCSC(C)=O)OC(=O)[C@H](C)NC1=O
II. C/C=C1\NC(=O)c2nc(F)cc(n2)CNC(=O)C[C@@H](/C=C/CCSC(C)=O)OC(=O)[C@H](C(C)C)NC1=O
// which entry has the larger GI50 value, I or II ? Kindly state the label of the option you pick.
I

---

Test system: MCF-7 (human breast cancer cells)
Assay: MTT cancer cell growth inhibition
Assay type: cell-based
Conditions: Homo sapiens, MCF7, 72 h, 72 hours incubation, read-out: GI50 MCF
Endpoint label: GI50 (nM)

Solved cases below.
>>> measurement("C/C=C1\\NC(=O)c2ccc(F)c(n2)CNC(=O)C[C@@H](/C=C/CCS)OC(=O)[C@H](Cc2ccc(O)cc2)NC1=O [Compound 130]")
70
>>> measurement("C/C=C1\\NC(=O)c2cccc(n2)CNC(=O)C[C@@H](/C=C/CCSC(=O)CCCCCCC)OC(=O)[C@H](C)NC1=O [Compound 11]")
50
>>> measurement("C/C=C1\\NC(=O)c2cccc(n2)CNC(=O)C[C@@H](/C=C/CCSC(=O)CCCCCC)OC(=O)[C@H](C(C)C)NC1=O [Compound 2]")
30

I. C/C=C1\NC(=O)c2nc(ccc2C)CNC(=O)C[C@@H](/C=C/CCSC(C)=O)OC(=O)[C@H](Cc2ccccc2)NC1=O [Compound 66]
II. C/C=C1\NC(=O)c2ccc(F)c(n2)CNC(=O)C[C@@H](/C=C/CCSC(C)=O)OC(=O)[C@H](Cc2ccc(O)cc2)NC1=O [Compound 83]
III. C=C1NC(=O)c2cccc(n2)CNC(=O)C[C@@H](/C=C/CCSC(C)=O)OC(=O)[C@H](C(C)C)NC1=O [Compound 19]
Highest GI50 first, then in falling order down to the smallest. Order the labels as requested and list them.
III, I, II

---

Tested on: PANC-1 (Pac-1, human pancreatic cancer cells)
Assay: MTT cancer cell growth inhibition
Type: cell-based
Conditions: Homo sapiens, PANC-1, 72 h, MTT, 72 hours incubation; read-out: GI50 PAN
Endpoint label: GI50 (nM)

>>> measurement("C/C=C1\\NC(=O)c2nccc(n2)CNC(=O)C[C@@H](/C=C/CCS)OC(=O)[C@H](C)NC1=O [Compound 144]")
70
>>> measurement("C/C=C1\\NC(=O)c2cc(F)cc(n2)CNC(=O)C[C@@H](/C=C/CCS)OC(=O)[C@H](Cc2cccc3ccccc23)NC1=O [Compound 125]")
120
>>> measurement("C/C=C1\\NC(=O)c2nc(ccc2C)CNC(=O)C[C@@H](/C=C/CCSC(C)=O)OC(=O)[C@H](Cc2ccccc2)NC1=O [Compound 66]")
30

a. C/C=C1\NC(=O)c2cc(F)cc(n2)CNC(=O)C[C@@H](/C=C/CCS)OC(=O)[C@H](CCCCN)NC1=O [Compound 117]
b. C/C=C1\NC(=O)c2ccc(F)c(n2)CNC(=O)C[C@@H](/C=C/CCS)OC(=O)[C@H](CCCCNC(=O)OCC2c3ccccc3-c3ccccc32)NC1=O [Compound 122]
Of the pair a and b , name the member with the lesser recorded GI50. Kindly state the label of the option you pick.
b
